The measurements presented in this section are drawn from ChEMBL document CHEMBL4431385.

molecular target: Nonstructural protein 5A (Hepatitis C virus) (UniProt Q5L478); experiment: Inhibition of HCV GT1b NS5A assessed as suppression of replicon RNA level by real-time PCR analysis; conditions: Hepatitis C virus subtype 1b
Sequence (Q5L478 as listed by the source): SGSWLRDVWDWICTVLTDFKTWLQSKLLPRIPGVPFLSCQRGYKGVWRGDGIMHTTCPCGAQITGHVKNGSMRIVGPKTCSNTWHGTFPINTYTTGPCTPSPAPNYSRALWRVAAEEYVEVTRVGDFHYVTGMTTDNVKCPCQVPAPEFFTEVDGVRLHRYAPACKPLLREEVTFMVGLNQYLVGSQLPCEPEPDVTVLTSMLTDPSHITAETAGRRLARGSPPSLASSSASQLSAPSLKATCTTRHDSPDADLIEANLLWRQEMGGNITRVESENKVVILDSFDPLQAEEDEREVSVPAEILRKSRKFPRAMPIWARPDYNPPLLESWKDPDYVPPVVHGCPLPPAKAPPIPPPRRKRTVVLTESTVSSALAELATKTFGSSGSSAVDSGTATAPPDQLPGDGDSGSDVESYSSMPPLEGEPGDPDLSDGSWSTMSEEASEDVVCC
EC90 listing for selected compounds.
EXPERIMENTAL READOUT: EC90

* COC(=O)N[C@H](C(=O)N1C[C@H](F)C[C@H]1c1ncc(-c2cc(F)c3c(c2)OC(c2cccc(OC(F)(F)F)c2)n2c-3cc3cc(-c4cnc([C@@H]5C[C@@H](F)CN5C(=O)[C@@H](NC(=O)OC)C(C)C)[nH]4)ccc32)[nH]1)C(C)C (some centres undefined) | 5 pM
* COC(=O)N[C@H](C(=O)N1CCC[C@H]1c1ncc(-c2ccc3c(c2)OCn2c-3cc3cc(-c4cnc([C@@H]5CCCN5C(=O)[C@@H](NC(=O)OC)C(C)C)[nH]4)ccc32)[nH]1)C(C)C | 20 pM
* COC(=O)N[C@H](C(=O)N1CCC[C@H]1c1ncc(-c2ccc3c(c2)OC(c2ccccc2)n2c-3c(F)c3cc(-c4cnc([C@@H]5C[C@@H](F)CN5C(=O)[C@@H](NC(=O)OC)C(C)C)[nH]4)ccc32)[nH]1)C(C)C (mixture of isomers) | 3 pM
* COC(=O)N[C@H](C(=O)N1CCC[C@H]1c1ncc(-c2ccc3c(c2)OCn2c-3cc3cc(-c4cnc([C@@H]5CCCN5C(=O)[C@@H](NC(=O)OC)C(C)C)[nH]4)cc(F)c32)[nH]1)C(C)C | 10 pM
